Recorded pKa by entry
# experiment summary: Compound was evaluated for pKa value by potentiometric titration
# Assay type: physicochemical
Please state the value as a number alone, without comment.

Check out these entries, answers already filled in.
C/C(CC1CC1)=N/OCC(O)CNC(C)(C)C (centres undefined) | 9.57
CC(C)(C)NCC(O)CO/N=C\C1CC1 (centres undefined) | 9.64
CC(C)(C)NCC(O)CON=C(C1CC1)C1CC1 (centres undefined) | 9.64

Value of measured pKa for the entry C/C(=N/OCC(O)CNC(C)(C)C)C(C)C (centres undefined) : 9.27

Value of measured pKa for the entry CC(NOCC(O)CNC(C)(C)C)C1CC1 (centres undefined) : 9.1

Value of measured pKa for the entry C=CC(C)(C)OCC(O)CNC(C)(C)C (centres undefined) : 9.67

Value of measured pKa for the entry CC(C)(C)COCC(O)CNC(C)(C)C (centres undefined) : 9.68

Value of measured pKa for the entry CC(C)(C)NCC(O)COC(C1CC1)C1CC1 (centres undefined) : 9.63

Value of measured pKa for the entry C/C(=N/OCC(O)CNC(C)(C)C)C1CC1 (centres undefined) : 9.45
